Below, each of the compounds is paired with its reported Human Liver S-9 Intrinsic Clearance _1 value.
# experimental.protocol: Human liver S-9 intrinsic clearance
# Format: in vitro ADME
# conditions: 2.5 mg/mL S-9, 1 μM, replicate 1
# unit: μL/min/mg protein | format: bare number

// recorded Human Liver S-9 Intrinsic Clearance _1 for CN(C)CCNC(=O)c1cccc2cc3ccccc3nc12 : 19.0

// recorded Human Liver S-9 Intrinsic Clearance _1 for Nc1nc(OCc2ccccc2)c2nc[nH]c2n1 : 6.66

// recorded Human Liver S-9 Intrinsic Clearance _1 for CC[C@H]1OC(=O)[C@H](C)C(=O)[C@H](C)[C@@H](O[C@@H]2O[C@H](C)C[C@H](N(C)C)[C@H]2O)[C@](C)(OC)C[C@@H](C)C(=O)[C@H](C)[C@H]2N(C3CN([C@H](C)c4ccnc5ncccc45)C3)C(=O)O[C@]12C : 6.78

Provenance of the data: patent US11530216B2
